These measurements were taken from patent US12473289B2.

TESTED ON: Delta-5-Desaturase (D5D) (Homo sapiens (Human), UniProt O60427)
Sequence (O60427 whole entry, species assumed): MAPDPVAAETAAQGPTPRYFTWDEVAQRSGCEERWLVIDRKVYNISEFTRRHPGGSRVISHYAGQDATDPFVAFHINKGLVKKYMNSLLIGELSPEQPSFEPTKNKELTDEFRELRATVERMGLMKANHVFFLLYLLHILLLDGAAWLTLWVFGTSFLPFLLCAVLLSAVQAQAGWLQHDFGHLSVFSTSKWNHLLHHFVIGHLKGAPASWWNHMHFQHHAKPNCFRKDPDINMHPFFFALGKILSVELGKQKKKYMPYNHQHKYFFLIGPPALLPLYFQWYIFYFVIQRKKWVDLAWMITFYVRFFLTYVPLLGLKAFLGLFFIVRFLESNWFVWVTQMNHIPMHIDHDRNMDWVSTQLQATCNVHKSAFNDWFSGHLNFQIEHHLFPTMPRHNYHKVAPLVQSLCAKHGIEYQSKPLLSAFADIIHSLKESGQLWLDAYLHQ
ASSAY REMARKS: In vitro measurement of Delta-5-Desaturase inhibitory activity using DGLA-CoA and Arachidonyl-CoA mass spectrometric assays
RECORDED CONDITIONS: membrane preparations of D5D-overexpressing HEK293 6E cells; averaged over at least two independent runs
Hi there, I'd appreciate the recorded IC50 for every entry that follows.
Expressed in nM, but write only the number.

Dear colleague, I am looking for the recorded IC50 of the following compound: COc1ccn2c(=O)c(-c3cnc(-c4ccccc4)o3)c(C(F)(F)F)nc2c1
110

Dear colleague, I am looking for the recorded IC50 of the following compound: Cc1cnn2c(=O)c(-c3cnn(CC(F)(F)C(F)(F)F)c3)c(C(F)(F)F)nc2c1
67

Dear colleague, I am looking for the recorded IC50 of the following compound: COc1ccn2c(=O)c(-n3cnc(CCC(F)(F)F)c3)c(C(F)(F)F)nc2c1
365

Dear colleague, I am looking for the recorded IC50 of the following compound: CN(C)c1ccn2c(=O)c(-c3cnn(CC(F)(F)C(F)(F)F)c3)c(C(F)(F)F)nc2c1
121
